Molecular target: Protein kinase C delta type (Homo sapiens)
Sequence (Q05655 whole entry, the tested form may be a part): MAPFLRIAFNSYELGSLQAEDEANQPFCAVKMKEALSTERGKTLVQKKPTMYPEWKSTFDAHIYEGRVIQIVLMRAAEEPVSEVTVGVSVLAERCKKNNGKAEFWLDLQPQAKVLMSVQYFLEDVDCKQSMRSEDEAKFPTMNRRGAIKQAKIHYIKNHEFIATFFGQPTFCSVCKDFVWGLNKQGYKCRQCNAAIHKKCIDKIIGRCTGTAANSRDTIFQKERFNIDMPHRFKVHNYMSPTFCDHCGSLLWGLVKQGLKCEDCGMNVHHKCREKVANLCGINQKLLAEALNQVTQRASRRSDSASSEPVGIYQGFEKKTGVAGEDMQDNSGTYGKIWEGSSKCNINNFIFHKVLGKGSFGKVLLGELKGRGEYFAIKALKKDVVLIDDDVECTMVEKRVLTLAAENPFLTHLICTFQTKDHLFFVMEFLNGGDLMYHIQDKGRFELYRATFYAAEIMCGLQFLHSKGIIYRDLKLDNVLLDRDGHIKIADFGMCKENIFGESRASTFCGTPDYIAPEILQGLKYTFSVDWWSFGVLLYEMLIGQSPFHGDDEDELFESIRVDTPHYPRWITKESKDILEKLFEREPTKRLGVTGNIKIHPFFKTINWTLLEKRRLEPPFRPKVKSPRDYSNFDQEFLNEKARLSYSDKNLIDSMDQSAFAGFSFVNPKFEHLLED
Assay: Displacement of [3H]PDBu from protein kinase C Delta-C1A domain
pKi: −log10 of the molar value.
Outcome Measure: pKi

(a) CCCCCCCCCCCN1c2ccccc2C[C@@H](CO)OC(=O)[C@@H]1C(C)C
(b) CCCCCCCCCCc1ccc2c(c1)N(C)[C@@H](C(C)C)C(=O)O[C@H](CO)C2
Query: Which one would you say has the larger pKi value: a , or b ? Answer = label.
Reply: b

----------
Target: Protein kinase C theta type (Homo sapiens, UniProt Q04759)
Sequence (Q04759 whole entry): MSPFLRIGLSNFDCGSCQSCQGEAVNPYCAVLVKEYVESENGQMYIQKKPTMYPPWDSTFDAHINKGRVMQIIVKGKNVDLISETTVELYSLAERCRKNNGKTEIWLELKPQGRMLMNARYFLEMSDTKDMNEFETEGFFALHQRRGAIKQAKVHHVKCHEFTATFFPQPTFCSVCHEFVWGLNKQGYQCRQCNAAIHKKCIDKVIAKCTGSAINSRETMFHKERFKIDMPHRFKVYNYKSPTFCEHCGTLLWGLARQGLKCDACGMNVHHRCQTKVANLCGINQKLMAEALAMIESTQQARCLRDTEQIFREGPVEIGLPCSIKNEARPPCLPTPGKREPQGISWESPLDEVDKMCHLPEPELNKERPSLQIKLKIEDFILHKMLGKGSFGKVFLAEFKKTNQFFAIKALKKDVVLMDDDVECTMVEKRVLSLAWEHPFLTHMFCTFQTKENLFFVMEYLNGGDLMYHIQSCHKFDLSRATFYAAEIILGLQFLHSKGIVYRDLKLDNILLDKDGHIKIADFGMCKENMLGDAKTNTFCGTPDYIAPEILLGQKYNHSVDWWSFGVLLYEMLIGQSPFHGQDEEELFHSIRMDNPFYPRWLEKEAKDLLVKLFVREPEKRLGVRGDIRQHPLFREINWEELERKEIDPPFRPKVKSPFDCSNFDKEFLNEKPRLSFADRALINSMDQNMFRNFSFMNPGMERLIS
Outcome Measure: Ki (nM)
Give the quantity in nM, number only.

Query: Supply Ki measured with Protein kinase C theta type (Homo sapiens, UniProt Q04759) for "CCCCCCCCCCc1cccc2c1C[C@@H](CO)OC(=O)[C@H](C(C)C)N2C" .
Reply: 167

Hello, the source for this data is ChEMBL document CHEMBL1136201, in case you need it.
